These entries and their values trace back to a melting point compilation (Tetko et al.; mined from patent text by program, amines drawn as free bases though some values may be those of a salt).

// melting point lookup, one value per entry

# Compound, melting point
records = [
    ("CCOC(=O)Cc1ccc(NC(=O)C(COc2cccc(Cl)c2)NS(=O)(=O)c2ccc(I)cc2)cc1 (racemic)", "169 to 170 °C"),
    ("Cc1c(Cc2c[nH]cn2)ccc(O)c1C(N)=O", "263 °C"),
    ("Cn1cc(C(=O)Nc2ccccc2-c2ccc(Br)cc2)c(C(F)(F)F)c1", "163 to 164 °C"),
]

The compound listed as CC(C)n1c(/C=C/C2CC(O)CC(=O)O2)c(-c2ccc(F)cc2)c2ccccc2c1=O (stereo unspecified) has a reported melting point of 151 to 154 °C

The compound listed as O=C1c2cc(Cl)c(Cl)cc2C(=O)c2c1c(Cl)c1cc(Cl)c(Cl)cc1c2Cl has a reported melting point of > 260 °C

---

// melting point lookup, one value per entry

Past entries and their recorded results:
# Molecule, Value Observed
measured = [
    ("Cc1c(O)c(=O)ccn1Cc1ccccc1", "205 to 207 °C"),
    ("COC(=O)c1cc(-n2c(=O)c3c(n(C)c2=O)CCC3)ccc1Cl", "164 to 166 °C"),
    ("COc1ccc2c(C3=CCN(C[C@H](O)COc4cccc5[nH]ccc45)CC3)c[nH]c2c1", "155 to 160 °C"),
]

The molecule listed as CN(C(=O)c1ccc2cnccc2n1)C1CCCCC1 has a reported melting point of 62 to 63 °C

The molecule listed as Nc1cccc(OCc2ccc3ccccc3n2)c1 has a reported melting point of 98 to 99 °C

The molecule listed as O=C1C(=O)c2ccccc2C2=C1SCC1(CCN(CCc3ccccc3)CC1)O2 has a reported melting point of 117 to 118 °C

The molecule listed as CCOC(=O)[C@H](CSCCc1ccccc1)NC(=O)C(CSC(C)=O)Cc1ccccc1 (some centres not stated) has a reported melting point of 63 to 64 °C

---

Quantity: melting point

Past entries and their recorded results:
# Compound, melting point
measured = [
    ("COc1ccc(C(=O)CC(O)C(=O)O)cc1OC (stereo not given)", "106 to 108 °C"),
    ("Oc1nc(Cl)n(-c2ccccc2)n1", "147 to 149 °C"),
    ("CC(C)NC(=O)c1cnn(C)c1C(=O)Nc1ccn2nc(-c3ccccc3)nc2c1", "> 250 °C"),
    ("CN1C(=O)CC[C@]2(C)c3ccc(-c4cc5ccccc5c5ccccc45)cc3CC[C@@H]12", "218 to 220 °C"),
    ("Nc1ccc(-c2nnsc2-c2ccc(N)cc2)cc1", "236 °C"),
]

The compound listed as O=C1c2cccc3c(N4CCCC4)c(F)cc(c23)C(=O)N1O has a reported melting point of 224 to 226 °C

---

Quantity: melting point (°C)

Past entries and their recorded results:
# Mol, Quantity, Value Observed
rows = [
    ("CC(C)(C)OC(=O)Nc1cc(CO)c(C#Cc2ccc(F)cc2)cc1[N+](=O)[O-]", "melting point", 198),
    ("O=C1c2ccc(NC(=O)C3CCCCC3)cc2C(=O)c2cc(NC(=O)C3CCCCC3)ccc21", "melting point", 269),
]

a = Cc1snc(O)c1C#N
b = COC(=O)c1ccncc1SCc1ccccc1
// returns a or b , whichever has the lower melting point Please indicate the selected item by its label.
b
(b: 80 °C, a: 205 °C)

---

Quantity: melting point

# Compound, Quantity, Value Observed
rows = [
    ("N#Cc1nn(-c2c(Cl)cc(C(F)(F)F)cc2Cl)cc1C=O", "melting point", "168 °C"),
    ("CCc1nnc(-c2cccc(N(C)C)c2)n1-c1ccc(OC)cc1", "melting point", "170 °C"),
    ("N#Cc1ccc(S(=O)(=O)c2ccc(S(N)(=O)=O)s2)c(F)c1", "melting point", "200 to 202 °C"),
    ("CCCc1c(N)c(N)cc2c(=O)cc(C(=O)OC)oc12", "melting point", "221 to 222 °C"),
    ("O=[N+]([O-])c1c(Cl)c(Cl)cc2nc(Cl)c(Cl)nc12", "melting point", "118 to 120 °C"),
    ("COc1nc2c(cc1C#N)CCCCC2", "melting point", "83.5 to 84 °C"),
    ("O=C1N(Cc2ccc(C(F)(F)F)nc2)c2ccccc2C12COc1cc3c(cc12)OCCO3 (configuration not stated)", "melting point", "204 to 207 °C"),
    ("O=C(O)c1ccc(N2CCOCC2)cc1C(=O)O", "melting point", "178 to 180 °C"),
]

The compound listed as CN1CCN(C(=O)[C@H](CC(N)=O)NC(=O)OC(C)(C)C)CC1 has a reported melting point of 68 to 70 °C

The compound listed as Fc1ccc2[nH]c(CC3CCN(CC4CCc5ccccc5O4)CC3)cc2c1 (configuration not stated) has a reported melting point of 187 to 190 °C

---

Quantity: melting point

Past entries and their recorded results:
# Compound, Value Observed
data = [
    ("Cn1ncc2c1-c1c(Oc3ccc(O)cc3)sc(C(N)=O)c1CC2", "137 to 139 °C"),
    ("Oc1ncn(-c2cccc(F)n2)n1", "290 °C"),
    ("CC(C)(C)OC(=O)NCc1ccccc1Br", "51 to 53 °C"),
    ("Cc1[nH]c(=O)ccc1-c1ccc(-n2ccnc2)cc1", "310 to 314 °C"),
    ("COc1ccccc1Oc1c(Cl)ncnc1Cl", "79 to 80 °C"),
    ("O=C(OCC1c2ccccc2-c2ccc(S(=O)(=O)O)cc21)ON1C(=O)CCC1=O (configuration not stated)", "140 to 146 °C"),
]

The compound listed as CC(C)(C)OC(=O)N[C@H](Cc1ccc(C(F)(F)F)o1)[C@@H](O)c1ccc(F)cc1 (racemic) has a reported melting point of 111 to 112 °C

The compound listed as CC(COc1ccccc1)OS(C)(=O)=O (configuration not stated) has a reported melting point of 58 °C

The compound listed as Cn1nc(C2CCCC2)cc1N has a reported melting point of 149 to 150 °C

---

// melting point lookup, one value per entry

# Compound, melting point
records = [
    ("COc1ccc(C(C#N)C(=O)Cc2ccccc2)cc1 (stereo not given)", "115 to 116 °C"),
    ("CSCc1cccc(CNC(=O)c2nc3scc(COCc4ccc(C(=O)O)cc4)c3c(=O)[nH]2)c1", "222 to 223 °C"),
    ("Cc1cc(C)cc(N(CCCC(N)=O)Cc2ccc3nc(NCCCN4CCOCC4)n(Cc4ncccc4O)c3c2)c1", "170 °C"),
    ("O=S(=O)(CCCl)CCCS(=O)(=O)CCCl", "142 to 146 °C"),
    ("COc1ccc(-n2nc(O)c3[nH]c4cc(Cl)ccc4c(=O)c3c2=O)c(C)c1", "354 to 356 °C"),
]

The compound listed as O=C(Nc1ccc(Cl)c(Cl)c1)O[C@H]1COC(c2ccccc2)=N[C@@H]1c1ccccc1 (racemic) has a reported melting point of 184 °C

The compound listed as CC(=O)NC(NCC(=O)OCc1ccccc1)C(=O)NCc1ccccc1 (stereo not given) has a reported melting point of 133 to 135 °C

The compound listed as Cc1ccc(S(=O)(=O)OCC2COc3cc(C)ccc3O2)cc1 (stereo not given) has a reported melting point of 84 °C

The compound listed as CC(C=CC=C(C)CO)=CC=CC=C(C)C1OCC(C)(C)CO1 has a reported melting point of 136 to 137 °C

The compound listed as CNC(=O)C(C#N)C(=O)Nc1ccc(C(F)(F)F)cc1 (stereo not given) has a reported melting point of 184 to 186 °C

The compound listed as Clc1ccc(-c2nc(-n3ccnc3)oc2CCC2=NCCO2)cc1 has a reported melting point of 120 to 121 °C

The compound listed as Cc1oc(C2CC2)nc1COc1ccc(CC(OC(C)C)C(=O)O)c2ccccc12 (stereo not given) has a reported melting point of 129 to 130 °C

The compound listed as COc1ccc2nc(CO)n(C)c2n1 has a reported melting point of 138 to 140 °C

---

// melting point lookup, one value per entry

Past entries and their recorded results:
# Compound, melting point
rows = [
    ("CC1(C)C(=O)Oc2ccc(C#N)cc21", "138 to 140 °C"),
    ("Cc1cccc(C)c1N1CCCNC1=S", "249 to 251 °C"),
    ("CC1(C)CCC(Cc2ccc(Cl)cc2)=C(O)C1=O", "80 to 82 °C"),
    ("CC(C)(C)c1cc(CCc2ccccc2NC(=O)NCC(c2ccccc2)c2ccccc2)cc(C(C)(C)C)c1O", "179 °C"),
    ("N#CCCC(CCC#N)(CCC#N)[N+](=O)[O-]", "114 °C"),
]

The compound listed as O=C(OCC(Cl)(Cl)Cl)c1ccc2c(c1)C(C(Cl)(Cl)Cl)OC(C(Cl)(Cl)Cl)O2 (centres undefined) has a reported melting point of 129 to 130 °C

The compound listed as OC(CCC1CCN(Cc2ccccc2)CC1)c1ccc(N2CCCC2)cc1 (centres undefined) has a reported melting point of 93 to 95 °C

The compound listed as O=C1CCc2c1cccc2-c1ccc(C(F)(F)F)cc1 has a reported melting point of 75 to 78 °C

The compound listed as O=C(NCCCSc1ccncc1)c1cccs1 has a reported melting point of 112 to 113 °C

The compound listed as Nc1ccn(C2CC(O)C(CO)O2)c(=O)n1 (centres undefined) has a reported melting point of 208 to 210 °C
